Where do the numbers come from? From PubChem BioAssay AID2772.

Molecular target: Signal transducer and activator of transcription 1-alpha/beta (Homo sapiens)
Test: inhibition of STAT1-driven luciferase signal – cell-based, luminescence, NIH 3T3, dose response, late-stage follow-up (AID 2772)
Conditions: NIH 3T3 fibroblasts, STAT1 luciferase reporter
Calls of active or inactive are those of the source. How the calls were made is not given here.
assay.readout: IC50

Record excerpt, results attached:
O=c1c2ccccc2nc(CN2CCOCC2)n1Cc1nc(-c2ccc[nH]2)cs1: inactive
Cc1ccc(C)c(S(=O)(=O)N2CCN(C(C(=O)Nc3ccc(F)cc3)c3ccccc3)CC2)c1 (stereo not given): > 55.7 µM (inactive)
CCOc1ccccc1NC(=O)C(c1ccccc1)N1CCN(S(=O)(=O)c2ccc(F)c(F)c2F)CC1 (stereo not given): > 55.7 µM (inactive)
N#Cc1ccc(S(=O)(=O)N2CCN(C(C(=O)Nc3ccc(F)cc3)c3ccccc3)CC2)cc1 (stereo not given): > 55.7 µM (inactive)
O=c1cc(CSc2nc3ccccc3c(=O)[nH]2)c2ccc(O)cc2o1: inactive
O=C1c2ccccc2N/C(=C\N2CCOCC2)N1Cc1nc(-c2ccccc2F)cs1: inactive
CCOC(=O)N1CCN(C(=O)c2ccc(-n3c(=S)[nH]c4ccccc4c3=O)cc2)CC1: inactive
CNC(=O)c1nn(-c2ccc(F)cc2)c(=O)c2ccccc12: > 55.7 µM (inactive)

Batch request: IC50 for each of the following molecules.
1. Cc1cc2oc(=O)cc(CSc3nc4ccccc4c(=O)[nH]3)c2cc1Cl
2. CN(C)Cc1nc2ccccc2c(=O)n1Cc1nc(C(C)(C)C)cs1
3. COc1cccc(NC(=O)C(c2ccccc2)N2CCN(S(=O)(=O)c3ccc(C)cc3)CC2)c1 (stereo not given)
4. O=C(OCC1CCCCC1)c1nn(-c2ccccc2)c(=O)c2ccccc12
5. CC(C(=O)Nc1ccccc1)N1CCN(S(=O)(=O)c2ccccc2)CC1 (stereo not given)
6. Cc1ccc2oc(=O)cc(CSc3nc(-c4ccccc4)c4ccccc4n3)c2c1

A)
> 55.7 µM (inactive)
inactive
inactive
> 55.7 µM (inactive)
> 55.7 µM (inactive)
> 55.7 µM (inactive)

Give IC50 for each listed item.
1. CCOC(=O)c1ccc(S(=O)(=O)N2CCN(C(C(=O)Nc3ccc(OC)c(Cl)c3)c3ccccc3)CC2)cc1 (stereo not given)
2. O=C(Nc1ccc(F)cc1)C(c1ccccc1)N1CCN(S(=O)(=O)c2ccccc2)CC1 (stereo not given)
3. O=C(c1ccc(-n2c(=S)[nH]c3ccccc3c2=O)cc1)N1CCN(C(=O)c2ccco2)CC1
4. NC(=O)c1ccc(S(=O)(=O)N2CCN(C(C(=O)Nc3ccc(F)cc3)c3ccccc3)CC2)cc1 (stereo not given)
5. CN(C)C(=O)c1nn(-c2ccc(F)cc2)c(=O)c2ccccc12
6. Cc1ccc(-n2nc(C(=O)O)c3ccccc3c2=O)cc1C

A)
1. > 55.7 µM (inactive)
2. > 55.7 µM (inactive)
3. > 55.7 µM (inactive)
4. > 55.7 µM (inactive)
5. > 55.7 µM (inactive)
6. > 55.7 µM (inactive)

Provide the reported IC50 of each entry below, same order.
1. CCOc1ccc(-c2csc(Cn3c(CN4CCN(C)CC4)nc4ccccc4c3=O)n2)cc1
2. N#Cc1ccccc1S(=O)(=O)N1CCN(C(C(=O)Nc2ccc(F)cc2)c2ccccc2)CC1 (stereo not given)
3. CN1CCN(C=C2Nc3ccccc3C(=O)N2Cc2nc(C34CC5CC(CC(C5)C3)C4)cs2)CC1
4. COC(=O)c1nn(-c2ccc(F)cc2)c(=O)c2ccccc12
5. CCOc1ccc2oc(=O)cc(CSc3nc4ccccc4c(=O)[nH]3)c2c1
6. O=C(Nc1ccc(F)cc1)C(c1ccccc1)N1CCN(S(=O)(=O)c2ccc3ccccc3c2)CC1 (stereo not given)

A)
1. > 18.6 µM (inactive)
2. > 55.7 µM (inactive)
3. > 55.7 µM (inactive)
4. > 55.7 µM (inactive)
5. > 55.7 µM (inactive)
6. > 55.7 µM (inactive)

Parameters: items (list). Returns: IC50 for each item.
1. CC(C(=O)Nc1ccc(F)c(F)c1)N1CCN(S(=O)(=O)c2ccc(C(F)(F)F)cc2)CC1 (stereo not given)
2. CC(=O)c1ccc(S(=O)(=O)N2CCN(C(C(=O)Nc3ccc(C)cc3)c3ccccc3)CC2)cc1 (stereo not given)
3. O=C(c1ccc(-n2c(=S)[nH]c3ccccc3c2=O)cc1)N1CCN(c2ccc(F)cc2)CC1
4. O=C(c1ccc(-n2c(=S)[nH]c3ccccc3c2=O)cc1)N1CCN(C2CCCCC2)CC1

A)
> 55.7 µM (inactive)
> 55.7 µM (inactive)
> 55.7 µM (inactive)
> 55.7 µM (inactive)
